Assay: activity coefficient (dimensionless); of the first substance listed, at infinite dilution; xn = mol fraction of the nth substance listed
Conditions: 323.15 K; 101.33 kPa; Liquid; Chromatography; x1 = 0
Exam item: assign label 1 to entries whose activity coefficient is below 10 and label 0 to entries at or above 10. Note that a value of exactly 10 receives label 0.

{"molecule": "C=O [methanal] + CCCCC(CC)CN(CC(CC)CCCC)C(=O)C(C)C", "labelValue": "label 1"}
{"molecule": "ClC(Cl)(Cl)Cl [tetrachloromethane] + CCCCC(CC)CN(CC(CC)CCCC)C(=O)C(C)C", "labelValue": "label 1"}
{"molecule": "CCCC(C)C [2-methylpentane] + CCCCC(CC)CN(CC(CC)CCCC)C(=O)C(C)C", "labelValue": "label 1"}
{"molecule": "CCCCc1ccccc1 [butylbenzene] + CCCCC(CC)CN(CC(CC)CCCC)C(=O)C(C)C", "labelValue": "label 0"}
{"molecule": "CCCCCCCCCCC [undecane] + CCCCC(CC)CN(CC(CC)CCCC)C(=O)C(C)C", "labelValue": "label 0"}
{"molecule": "CCCCC [pentane] + CCCCC(CC)CN(CC(CC)CCCC)C(=O)C(C)C", "labelValue": "label 1"}
{"molecule": "CCc1ccccc1 [ethylbenzene] + CCCCC(CC)CN(CC(CC)CCCC)C(=O)C(C)C", "labelValue": "label 0"}
{"molecule": "CCCCCC(C)=O [2-heptanone] + CCCCC(CC)CN(CC(CC)CCCC)C(=O)C(C)C", "labelValue": "label 0"}
{"molecule": "CC(C)=O [acetone] + CCCCC(CC)CN(CC(CC)CCCC)C(=O)C(C)C", "labelValue": "label 1"}
{"molecule": "Cc1ccc(C)cc1 [1,4-dimethylbenzene] + CCCCC(CC)CN(CC(CC)CCCC)C(=O)C(C)C", "labelValue": "label 0"}
{"molecule": "CCCc1ccccc1 [propylbenzene] + CCCCC(CC)CN(CC(CC)CCCC)C(=O)C(C)C", "labelValue": "label 0"}

---

Assay: activity coefficient (dimensionless); of the first substance listed, at infinite dilution; xn = mol fraction of the nth substance listed
Conditions: 323.15 K; 101.33 kPa; Liquid; Chromatography; x1 = 0
# activity coefficient >= 4 gives YES, anything below gives NO

{"compound": "C=CCCCCCCCC [1-decene] + CCCCC(CC)CN(CC(CC)CCCC)C(=O)C(C)C", "labelValue": "YES"}
{"compound": "CCOC(C)=O [ethyl acetate] + CCCCC(CC)CN(CC(CC)CCCC)C(=O)C(C)C", "labelValue": "NO"}
{"compound": "Cc1cccc(C)c1 [1,3-dimethylbenzene] + CCCCC(CC)CN(CC(CC)CCCC)C(=O)C(C)C", "labelValue": "YES"}
{"compound": "CCCCCCCCC [nonane] + CCCCC(CC)CN(CC(CC)CCCC)C(=O)C(C)C", "labelValue": "YES"}
{"compound": "CCCCCCC [heptane] + CCCCC(CC)CN(CC(CC)CCCC)C(=O)C(C)C", "labelValue": "YES"}
{"compound": "CC#N [acetonitrile] + CCCCC(CC)CN(CC(CC)CCCC)C(=O)C(C)C", "labelValue": "NO"}
{"compound": "C1CCCCC1 [cyclohexane] + CCCCC(CC)CN(CC(CC)CCCC)C(=O)C(C)C", "labelValue": "NO"}
{"compound": "C=CCCCCCC [oct-1-ene] + CCCCC(CC)CN(CC(CC)CCCC)C(=O)C(C)C", "labelValue": "YES"}
{"compound": "CCCCCC [hexane] + CCCCC(CC)CN(CC(CC)CCCC)C(=O)C(C)C", "labelValue": "NO"}
{"compound": "CC(C)CC(C)(C)C [2,2,4-trimethylpentane] + CCCCC(CC)CN(CC(CC)CCCC)C(=O)C(C)C", "labelValue": "YES"}
{"compound": "c1ccccc1 [benzene] + CCCCC(CC)CN(CC(CC)CCCC)C(=O)C(C)C", "labelValue": "NO"}
{"compound": "Cc1ccccc1 [toluene] + CCCCC(CC)CN(CC(CC)CCCC)C(=O)C(C)C", "labelValue": "YES"}
{"compound": "ClCCl [dichloromethane] + CCCCC(CC)CN(CC(CC)CCCC)C(=O)C(C)C", "labelValue": "NO"}
{"compound": "CCCCCCCCCC [decane] + CCCCC(CC)CN(CC(CC)CCCC)C(=O)C(C)C", "labelValue": "YES"}
{"compound": "ClC(Cl)Cl [trichloromethane] + CCCCC(CC)CN(CC(CC)CCCC)C(=O)C(C)C", "labelValue": "NO"}
{"compound": "CCCC(=O)CC [3-hexanone] + CCCCC(CC)CN(CC(CC)CCCC)C(=O)C(C)C", "labelValue": "YES"}
{"compound": "C=CCCCC [hex-1-ene] + CCCCC(CC)CN(CC(CC)CCCC)C(=O)C(C)C", "labelValue": "NO"}
{"compound": "CCCCCCCC [octane] + CCCCC(CC)CN(CC(CC)CCCC)C(=O)C(C)C", "labelValue": "YES"}
